B1: library; numbered along this chain (parent)
chain: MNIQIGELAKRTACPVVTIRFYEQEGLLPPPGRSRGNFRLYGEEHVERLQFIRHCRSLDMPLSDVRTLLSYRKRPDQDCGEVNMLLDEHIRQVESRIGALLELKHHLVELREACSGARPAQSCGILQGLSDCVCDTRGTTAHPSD

Variants of: B1
Experiment: sfGFP reporter fluorescence (15 h) (µM FITC); higher = stronger transcriptional activation
Settings: library round: Round 0; ligand: 1 µM Pb

>  <query-sequence>
MNIQIGELAKRTACPVVTIRFYEQEGLLPPPGRSRGNFRLYGEEHVERLQFIRHCRSLDMPLSDVRTLLSYRKRPDQDCGEVNMLLDEHIRQVNSRIGALLELKHHLVELREACSGARPAQSCGILQGLSDCVCDTRGTTAHPSD [E94N]

>  <sfGFP reporter fluorescence>
0.0755

$$$$
>  <query-sequence>
MNIQIGELAKRTACPVVTIRFYEQEGLLPPPGRSRGNFRLYGEEHVERLQFIRHCRSLDMPLSKVRTLLSYRKRPDQDCGEVNMLLDEHIRQVESRIGALLELVHHCVELREACSGARPAQSCGILQILSDCVCDTRGTTAHPSD [D64K K104V L107C G128I]

>  <sfGFP reporter fluorescence>
4.16

$$$$
>  <query-sequence>
MNIQIGELAKRTACPVVTIRFYEQEGLLPPPGRSRGNFRLYGEEHVERLQFIRHCRSLDMPLSDVRTLLSYRKRPDQDCGEVNMNLDEHIRQVESRIGALLELKHHLVELREACSGARPAQSCGILQGLSDCVCDTRGTTAHPSD [L85N]

>  <sfGFP reporter fluorescence>
0.0575

$$$$
>  <query-sequence>
MNIQIGELAKRTACPVVTIRFYEQEGLLPPPGRSRGNFRLYGEEHVERLQFIRHCRSLDMPLSDVRTLLSYRKRPDQDCGEINMLLDEHIRQVESRIGALLELKHHLVELREACSGARPAQSCGILQGLSDCVCDTRGTTAHPSD [V82I]

>  <sfGFP reporter fluorescence>
0.0658

$$$$
>  <query-sequence>
MNIQIGELAKRTACPVVTIRFYEQEGLLPPPGRSRGNFRLYGEEHVERLQFIRHCRSLDMKLSDVRTLLSYRKRPDQDCGEVNMLLDEHIRQVESRIGALLELKHHLVELREACSGARPAQSCGILQGLSDCVCDTRGTTAHPSD [P61K]

>  <sfGFP reporter fluorescence>
0.107

$$$$
>  <query-sequence>
MNMQIGELAKRTACPVVTIRFYEQEGLLPPPGRSRGNFRLYGEEHVERLQFIRHCRSLDMPLSDVRTLLSYRKRPDQDCGEVNMLLDEHIRQVESRIGALLELKHHLVELREACSGARPAQSCGILQGLSDCVCDTRGTTAHPSD [I3M]

>  <sfGFP reporter fluorescence>
0.0768

$$$$
>  <query-sequence>
MNIQIGELAKRTACPVVTIRFYEQEGLLPPPGRSRGNFRLYGEEHVERLQFIRHCRSLDMPLSDVRTLLSYRKRPDQDCGEVNMLLDEHIRQVESRIGALAELKHHLVELREACSGARPAQSCGILQGLSDCVCDTRGTTAHPSD [L101A]

>  <sfGFP reporter fluorescence>
0.0746

$$$$
>  <query-sequence>
MNIQIGELAKRTACPVVTIRFYEQEGLLPPPGRSRGNFRLYGEEHVERLQFIRHCRSLDMPLSHVRTLLSYRKRPDQDCGEVNMLLDEHIRQVESRIGALLELKHHLVELREACSGARPAQSCGILQGLSDCVCDTRGTTAHPSD [D64H]

>  <sfGFP reporter fluorescence>
0.12

$$$$
>  <query-sequence>
MNIQIGELAKRTACPKVTIRFYEQEGLLPPPGRSRGNFRLYGEEHVERLQFIRHCRSLDMPLSDVRTLLSYRKRPDQDCGEVNMLLDEHIRQVESRIGALLELKHHLVELREACSGARPAQSCGILQGLSDCVCDTRGTTAHPSD [V16K]

>  <sfGFP reporter fluorescence>
0.115

$$$$
>  <query-sequence>
MNIQIGELAKRTACPVVTIRFYEQEGLLPPPGRSRGNFRLYGEEHVERLQFIRHCRSLDMPLSDVRTLLSYRKRPDQDCGEVNMLLDEHIRQVESRIGALLELKHHLVELREACSGARPAQSCGILQGLSDCVCDTRGTTAHQSD [P143Q]

>  <sfGFP reporter fluorescence>
0.0735

$$$$
>  <query-sequence>
MNDQIGELAKRTACPVVTIRFYEQEGLLPPPGRSRGNFRLYGEEHVERLQFIRHCRSLDMPLSDVRTLLSYRKRPDQDCGEVNMLLDEHIRQVESRIGALLELKHHLVELREACSGARPAQSCGILQGLSDCVCDTRGTTAHPSD [I3D]

>  <sfGFP reporter fluorescence>
0.0601

$$$$
>  <query-sequence>
MNIQIGELAKRTACPVVTIRFYEQEGLLPPPGRSRGNFRLYGEEHVERLQFIRHCRSLDMPLSDVRTLLSYRKRPDQDCGEVNMLLDEHIRQVFSRIGALLELKHHLVELREACSGARPAQSCGILQGLSDCVCDTRGTTAHPSD [E94F]

>  <sfGFP reporter fluorescence>
0.0579

$$$$
>  <query-sequence>
MNIQIGELAKRTACPVVTIRFYEQEGLLPPPGRSRINFRLYGEEHVERLQFIRHCRSLDMPLSDVRTLLSYRKRPDQDCGEVNMLLDEHIRQVESRIGALLELKHHLVELREACSGARPAQSCGILQGLSDCVCDTRGTTAHPSD [G36I]

>  <sfGFP reporter fluorescence>
0.0579

$$$$
>  <query-sequence>
MNIQIGELAKRTACPVVTIRFYEQEGLLPPPGRSRGNFRLYGEEHVERLQFIRHCRSLDMPLSDVRTLLSYRKRPDQDCGEVNMLLDEHIRQVESRIGALLELKHHLVELREACSGARPAQSCGFLQGLSDCVCDTRGTTAHPSD [I125F]

>  <sfGFP reporter fluorescence>
0.0579

$$$$
>  <query-sequence>
MNIQIGELAKRTACPVVTIRFYEQEGLLPPPGRSRGNFRLYGEEHVERLQFIRHCRSLDMSLSDVRTLLSYRKRPDQDCGEVNMLLDEHIRQVESRIGALLELKHHLVELREACSGARPAQSCGILQGLSDCVCDTRGTTAHPSD [P61S]

>  <sfGFP reporter fluorescence>
0.146

$$$$

The measured values listed here are drawn from the supplement of paper PMC12783771.
